- assayed-system: UniProt O75530
- Sequence (O75530 whole entry): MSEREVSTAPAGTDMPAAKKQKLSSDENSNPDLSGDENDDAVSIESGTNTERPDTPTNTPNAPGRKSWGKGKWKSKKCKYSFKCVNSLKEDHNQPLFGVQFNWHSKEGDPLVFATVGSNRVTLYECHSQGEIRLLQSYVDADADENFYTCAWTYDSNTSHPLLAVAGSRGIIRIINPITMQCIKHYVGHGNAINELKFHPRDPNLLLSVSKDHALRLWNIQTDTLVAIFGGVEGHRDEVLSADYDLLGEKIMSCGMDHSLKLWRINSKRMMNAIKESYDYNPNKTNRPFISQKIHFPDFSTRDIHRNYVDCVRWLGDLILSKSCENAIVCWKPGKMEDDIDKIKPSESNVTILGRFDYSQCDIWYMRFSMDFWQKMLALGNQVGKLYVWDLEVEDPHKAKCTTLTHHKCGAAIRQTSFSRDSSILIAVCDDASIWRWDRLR
- assay-summary: EED TR-FRET Binding Assay (modified LanthaScreen competition assay)
- Procedure: Compounds were tested in a modified LanthaScreen competition assay. The following buffer was used to set up the binding reactions: 20 mM Tris-HCl pH 7.5, 200 mM NaCl, 0.01% Tween-20, 10 uM DTT (dithiothreitol), and 0.05% BSA (bovine serum albumin), with the DTT and BSA added fresh prior to initiating the binding assay. […] The reactions were then incubated for 1 hour at 25° C. in a humidified chamber prior to detection on the Perkin Elmer Envision plate reader using a Lanthascreen TR-FRET protocol.
I'd appreciate it if you could supply IC50 values for the items below.
Answers are plain numbers, in nM.

Give IC50 for all compounds that follow.
1. CN(C)[C@@H]1CN(C2CCc3cccc(F)c32)C[C@H]1c1ccc(-c2cnn(CC(=O)N3CC(F)C3)c2)nc1 (mixture of isomers) [Example 153]
2. CN(C)[C@H]1CN(C2CCc3cccc(F)c32)C[C@@H]1c1ccc(N2CCN(C3CC3)CC2)cc1 (mixture of isomers) [Example 64]

RESULT:
1. 2.01
2. 0.835
